settings: in DMAc, 278.15 K
EXPERIMENTAL ENDPOINT: solubility (mole fraction)
# print the numeric value only

Input `CN1COCN(Cc2cnc(Cl)s2)C1=N[N+](=O)[O-]` . Output solubility (mole fraction): 0.0679

* * *

conditions: in 2-ethoxyethanol, 283.15 K
EXPERIMENTAL ENDPOINT: solubility (mole fraction)
# print the numeric value only

Input `CN1COCN(Cc2cnc(Cl)s2)C1=N[N+](=O)[O-]` . Output solubility (mole fraction): 0.00411

* * *

details: in acetic acid, 313.15 K
EXPERIMENTAL ENDPOINT: solubility (mole fraction)
# print the numeric value only

Input `CN1COCN(Cc2cnc(Cl)s2)C1=N[N+](=O)[O-]` . Output solubility (mole fraction): 0.0387

The reported measurements were obtained from BigSolDB 2.1.
